target: PLpro (Severe acute respiratory syndrome coronavirus 2 (2019-nCoV) (SARS-CoV-2)); test: Assay for PLpro inhibitory activity (Ub-AMC fluorescence; single point inhibition test and IC50 determination); assay type: biochemical; conditions: read-out: inhibition of PLpro (1 μM), 1 μM test compound, 100 nM PLpro, 10 μM Ub-AMC, 37° C. 30 min
Give 1.0 when the value for inhibition at 1 µM is at least 70%. Give 0.0 when it is less.

chemical_structure=Cc1ccc(N2CC3CCC(C2)N3)cc1C(=O)NC1(c2cccc3cc(F)ccc23)CC1 class_assignment=1.0
chemical_structure=Cc1ccc2c(C3(NC(=O)c4cc(N5CC(N(C)C)C5)ccc4C)CC3)ccc(F)c2n1 class_assignment=1.0
chemical_structure=Cc1ccc(N2CC(CN(C)C)C2)cc1C(=O)NC1(c2ccc(F)c3ncccc23)CC1 class_assignment=0.0
chemical_structure=Cc1ccc(N2CCN(C(C)C)CC2)cc1C(=O)NC1(c2ccnc3ccccc23)CC1 class_assignment=1.0
chemical_structure=Cc1ccc(N2CC(N(C)C)C2)cc1C(=O)NC1(c2cccc(Oc3ccccc3)c2)CC1 class_assignment=0.0
chemical_structure=COC1(C)CN(c2ccc(C)c(C(=O)NC3(c4ccc(F)c5ncccc45)CC3)c2)C1 class_assignment=0.0
chemical_structure=Cc1ccc(N2CC(N(C)C)C2)cc1C(=O)NC1(c2csc3ccccc23)CC1 class_assignment=1.0

###

molecular target: PLpro (Severe acute respiratory syndrome coronavirus 2 (2019-nCoV) (SARS-CoV-2), UniProt P0DTD1); experiment: Assay for PLpro inhibitory activity (Ub-AMC fluorescence; single point inhibition test and IC50 determination); assay type: biochemical; details: read-out: inhibition of PLpro (1 μM), 1 μM test compound, 100 nM PLpro, 10 μM Ub-AMC, 37° C. 30 min
Listing: inhibition at 1 µM of selected molecules
quantity-name: inhibition at 1 µM (%)

molecule=Cc1ccc(N2CC(N(C)C)C2)cc1C(=O)NC1(c2ccc(C)c3ncccc23)CC1 quantity_name="inhibition at 1 µM" endpoint_unit=% experimental_value=99.4
molecule=Cc1ccc(NC2CCNCC2)cc1C(=O)NC1(c2ccc(F)c3ncccc23)CC1 quantity_name="inhibition at 1 µM" endpoint_unit=% experimental_value=24.5
molecule="Cc1ccc(N2CCCC(N(C)C)C2)cc1C(=O)NC1(c2ccc(F)c3ncccc23)CC1 (centres unmarked)" quantity_name="inhibition at 1 µM" endpoint_unit=% experimental_value=55.2
molecule=Cc1ccc(N2CC(N(C)C)C2)cc1C(=O)NC1(c2ccc3c(c2)c2ccccc2n3C)CC1 quantity_name="inhibition at 1 µM" endpoint_unit=% experimental_value=91
molecule=Cc1ccc(N2CCC(O)CC2)cc1C(=O)NC1(c2ccc(F)c3ncccc23)CC1 quantity_name="inhibition at 1 µM" endpoint_unit=% experimental_value=30
molecule=Cc1ccc(N2CC(C(C)(C)N)C2)cc1C(=O)NC1(c2ccc(F)c3ncccc23)CC1 quantity_name="inhibition at 1 µM" endpoint_unit=% experimental_value=8.2
molecule=Cc1ccc(N2CC([N+](C)(C)[O-])C2)cc1C(=O)NC1(c2ccc(F)c3ncccc23)CC1 quantity_name="inhibition at 1 µM" endpoint_unit=% experimental_value=0
molecule=COc1ccc(C2(NC(=O)c3cc(N4CC(N(C)C)C4)ccc3C)CC2)c2ccccc12 quantity_name="inhibition at 1 µM" endpoint_unit=% experimental_value=97.8
